Source of measurements: patent US7232671

# TARGET_OR_TEST_SYSTEM: purified bovine transducin (alpha subunit is the ADP-ribose acceptor), P04695
Listed next: entries and their corresponding ADP-ribosyltransferase activity (cpm).
QUANTITY: ADP-ribosyltransferase activity (cpm)

protein="S1 mutant 2-2 (Ser12->Gly in S1/6A) (protein) MVPPATVYRYDGRPPEDVFQNGFTAWGNNDNVLDHLTGRSCQVGSSNSAFVSTSSSRRYTEVYLEHRMQEAVEAERAGRGTGHFIGYIYEVRADNNFYGAASSYFEYVDTYGDNAGRILAGALATYQSEYLAHRRIPPENIRRVTRVYHNGITGETTTTEYSNARYVSQHTRANPNPYTSRRSVASIVGTLVRMAPVIGACMARQAESSEAMAAWSERAGEAMVLVYYESIAYS" units=cpm recorded_number=22300
protein="S1 mutant 6-1 (Asp11->Pro, Pro14->Asp in S1/6A) (protein) MVPPATVYRYPSRDPEDVFQNGFTAWGNNDNVLDHLTGRSCQVGSSNSAFVSTSSSRRYTEVYLEHRMQEAVEAERAGRGTGHFIGYIYEVRADNNFYGAASSYFEYVDTYGDNAGRILAGALATYQSEYLAHRRIPPENIRRVTRVYHNGITGETTTTEYSNARYVSQHTRANPNPYTSRRSVASIVGTLVRMAPVIGACMARQAESSEAMAAWSERAGEAMVLVYYESIAYS" units=cpm recorded_number=764
